The reported numbers originate from the supplement of paper PMC12667976.

Measured AIRE transcriptional activation functional score by item
B1: library; numbered along this chain (parent)
chain: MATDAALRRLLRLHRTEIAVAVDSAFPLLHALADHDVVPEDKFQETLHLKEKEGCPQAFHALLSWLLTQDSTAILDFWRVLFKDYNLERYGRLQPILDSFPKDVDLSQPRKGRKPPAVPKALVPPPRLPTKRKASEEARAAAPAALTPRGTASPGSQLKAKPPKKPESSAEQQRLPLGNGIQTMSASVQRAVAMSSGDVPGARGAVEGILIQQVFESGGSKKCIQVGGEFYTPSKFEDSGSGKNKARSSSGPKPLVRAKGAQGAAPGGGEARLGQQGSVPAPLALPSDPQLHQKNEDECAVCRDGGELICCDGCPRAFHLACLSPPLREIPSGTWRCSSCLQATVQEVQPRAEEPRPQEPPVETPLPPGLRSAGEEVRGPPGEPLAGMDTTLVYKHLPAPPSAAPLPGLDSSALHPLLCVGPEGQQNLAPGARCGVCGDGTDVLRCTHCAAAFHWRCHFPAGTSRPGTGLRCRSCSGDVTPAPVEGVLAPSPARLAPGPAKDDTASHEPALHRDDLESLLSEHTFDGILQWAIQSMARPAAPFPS

Variants of: B1
Assay: AIRE transcriptional activation functional score (insulin promoter-GFP; nonsense median 0, synonymous median 1) (normalised score); higher = higher AIRE activity (more reporter activation)
Conditions: with insulin promoter-GFP reporter in HEK293
I'd appreciate a reply containing only the number, no unit.

Use the examples below as a reference point.
variant identifier	quantitative result
R371P	0.614
A450Y	0.311
R433N	1.15
E229S	0.662
G274F	0.89

Query: Would you mind telling me what AIRE transcriptional activation functional score value was observed for `A500M` ?
Reply: 0.733

Query: Then this variant: `L444T`
Reply: 0.477

Query: Then this variant: `P129G`
Reply: 0.951

Query: Then this variant: `L366Y`
Reply: 0.821

Query: Then this variant: `K165R`
Reply: 0.872
